Molecular target: NDM-1 (New Delhi metallo-β-lactamase-1) (Klebsiella pneumoniae, UniProt C7C422)
Sequence (C7C422 29-270, looked up, species assumed): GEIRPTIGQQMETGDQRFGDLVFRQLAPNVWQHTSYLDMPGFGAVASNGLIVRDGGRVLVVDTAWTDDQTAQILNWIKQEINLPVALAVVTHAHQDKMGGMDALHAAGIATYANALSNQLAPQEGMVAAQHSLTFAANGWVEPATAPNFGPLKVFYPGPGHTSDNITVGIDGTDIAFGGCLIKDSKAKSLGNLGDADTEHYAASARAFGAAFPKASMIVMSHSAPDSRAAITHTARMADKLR
Experiment: Enzyme inhibition assay, NDM-1
Assay type: biochemical
Settings: read-out: pIC50 NDM-1 (converted)
Quantity Name: IC50 (µM)

* O=C(O)c1[nH]c2c(C3CC3)cccc2c1-c1ccc(F)cc1 | 0.0126
* CC(C)c1cccc2c(-c3ccc(C(=O)N(C)C)cc3Cl)c(C(=O)O)[nH]c12 | 0.0158
* COc1cccc(-c2c(C(=O)O)[nH]c3c(C)cccc23)c1OC | 1.26
* Cc1cccc2c(-c3ccc(Br)cc3)c(C(=O)O)[nH]c12 | 0.0251
* Cc1cccc2c(-c3cccc(C(F)(F)F)c3)c(C(=O)O)[nH]c12 | 0.0316
* Cc1ccc(-c2c(C(=O)O)[nH]c3c(C(C)C)cccc23)s1 | 0.0269

A = Cc1cccc2c(-c3ccc(C4CC4)cc3)c(C(=O)O)[nH]c12
B = CC(C)c1cccc2c(-c3ccc4[nH]ncc4c3)c(C(=O)O)[nH]c12
C = Cc1cccc2c(-c3ccccn3)c(C(=O)O)[nH]c12
Please produce an ascending ranking of these compounds based on IC50. Response format: the labels, sorted as the prompt asks.
B, A, C

====

Molecular target: NDM-1 (New Delhi metallo-β-lactamase-1) (Klebsiella pneumoniae, UniProt C7C422)
Experiment: Enzyme inhibition assay, NDM-1
Type: biochemical
Details: read-out: pIC50 NDM-1 (converted)
Quantity Name: IC50 (nM)

// solved cases for IC50 follow
• Cc1cccc2c(-c3ccc(Cl)cc3)c(C(=O)O)n(C)c12 = 501
• Cc1cccc2c(-c3ccc(Cn4cccn4)cc3)c(C(=O)O)[nH]c12 = 10000
• COc1cccc2c(-c3ccc(F)cc3)c(C(=O)O)[nH]c12 = 251
• CC(C)c1cccc2c(-c3ccc(F)cc3)c(C(=O)O)[nH]c12 = 12.6
• Cc1cccc2c(-c3ccc(S(C)(=O)=O)cc3)c(C(=O)O)[nH]c12 = 12.6

P = Cc1cccc2c(-c3ccc(C(F)(F)F)cc3)c(C(=O)O)[nH]c12
Q = O=C(O)c1[nH]c2ccccc2c1-c1ccccc1
R = Cc1ccc2[nH]c(C(=O)O)c(-c3ccc(F)cc3)c2c1
S = Cc1cccc2c(-c3ccc(Cl)cc3)c(C(=O)O)[nH]c12
Please produce an ascending ranking of these molecules based on IC50. Response format: the labels, sorted as the prompt asks.
S, P, Q, R
(S: 15.8 nM, P: 31.6 nM, Q: 3160 nM, R: 6310 nM)

====

Target: IMP-1 (Imipenemase-1) (Serratia marcescens)
Assay: Enzyme inhibition assay, IMP-1
Format: biochemical
Details: read-out: pIC50 IMP-1 (converted)
Quantity Name: IC50 (µM)

// solved cases for IC50 follow
- Cc1cccc2c(-c3cccc(Br)c3)c(C(=O)O)[nH]c12: 2
- Cc1cccc2c(-c3cccc4[nH]ncc34)c(C(=O)O)[nH]c12: 63.1
- CC(C)(C)c1cccc2c(-c3ccc(F)cc3)c(C(=O)O)[nH]c12: 0.1
- Cc1cccc2c(-c3ccc(Br)cc3)c(C(=O)O)[nH]c12: 7.94
- Cc1ccc2c(-c3ccc(F)cc3)c(C(=O)O)[nH]c2c1: 79.4

1 = CC(C)c1cccc2c(-c3ccc(CN4CCOCC4)cc3)c(C(=O)O)[nH]c12
2 = COCCc1cccc2c(-c3ccc(F)cc3)c(C(=O)O)[nH]c12
3 = CC(C)c1cccc2c(-c3ccc(Cn4cccn4)cc3)c(C(=O)O)[nH]c12
4 = CN(C)C(=O)c1ccc(-c2c(C(=O)O)[nH]c3c(CCOc4ccccc4)cccc23)cc1
Please produce an ascending ranking of these molecules based on IC50. Response format: the labels, sorted as the prompt asks.
3, 4, 1, 2

====

Biological target: IMP-1 (Imipenemase-1) (Serratia marcescens, UniProt P52699)
Sequence (P52699 19-246, looked up, species assumed): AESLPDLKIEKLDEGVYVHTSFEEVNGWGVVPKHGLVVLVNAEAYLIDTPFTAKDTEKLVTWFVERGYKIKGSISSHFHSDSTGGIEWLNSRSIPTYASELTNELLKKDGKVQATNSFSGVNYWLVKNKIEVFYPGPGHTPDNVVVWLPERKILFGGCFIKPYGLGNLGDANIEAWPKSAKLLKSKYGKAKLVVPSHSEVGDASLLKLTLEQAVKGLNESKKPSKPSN
Assay: Enzyme inhibition assay, IMP-1
Type: biochemical
Conditions: read-out: pIC50 IMP-1 (converted)
Quantity Name: IC50 (µM)

// solved cases for IC50 follow
* Cc1cccc2c(-c3cnn(C)c3)c(C(=O)O)[nH]c12 | 39.8
* CC(C)c1cccc2c(-c3ccc(C(=O)N(C)C)cc3Cl)c(C(=O)O)[nH]c12 | 1.55
* Cc1cccc2c(-c3ccc(S(=O)(=O)N(C)C)cc3)c(C(=O)O)[nH]c12 | 0.794
* CC(C)c1cccc2c(-c3ccc(F)cc3)c(C(=O)O)[nH]c12 | 0.501

I = CC(C)c1cccc2c(-c3ccccc3)c(C(=O)O)[nH]c12
II = CC(C)c1cccc2c(-c3ccc(Cn4cncn4)cc3)c(C(=O)O)[nH]c12
# return whichever of I and II has the smaller IC50 Answer by stating the label of the chosen item.
II

I = CC(C)c1cccc2c(-c3ccc(S(N)(=O)=O)cc3)c(C(=O)O)[nH]c12
II = CC(=O)Nc1ccc(-c2c(C(=O)O)[nH]c3c(C)cccc23)cc1
Two entries are listed, I and II . Which one carries the higher IC50? Answer by stating the label of the chosen item.
II

a = Cc1cccc2c(-c3ccc(Cl)cc3)c(C(=O)O)[nH]c12
b = O=C(O)c1[nH]c2c(CCOc3ccccc3)cccc2c1-c1ccc(Cl)cc1
c = Cc1cccc2c(-c3ccc([N+](=O)[O-])cc3)c(C(=O)O)[nH]c12
d = CC(C)c1cccc2c(-c3ccc(S(=O)(=O)N4CCCC4)cc3)c(C(=O)O)[nH]c12
Please produce an ascending ranking of these molecules based on IC50. Response format: the labels, sorted as the prompt asks.
d, b, a, c

====

Molecular target: VIM-2 (Veronese metallo-β-lactamase-2) (Escherichia coli, UniProt Q5U7L7)
Assay: Enzyme inhibition assay, VIM-2
Assay type: biochemical
Settings: read-out: pIC50 VIM-2 (converted)
Quantity Name: IC50 (nM)

// solved cases for IC50 follow
• Cc1cccc2c(-c3ccc(C(N)=O)cc3)c(C(=O)O)[nH]c12 = 100
• Cc1cccc2c(Cc3ccc(Cl)cc3)c(C(=O)O)[nH]c12 = 1580
• O=C(O)c1[nH]c2c(CCO)cccc2c1-c1ccc(F)cc1 = 794

I = CC(C)c1cccc2c(-c3ccc(C(=O)O)cc3)c(C(=O)O)[nH]c12
II = CC(C)c1cccc2c(-c3ccc(Cn4cccn4)cc3)c(C(=O)O)[nH]c12
Two entries are listed, I and II . Which one carries the higher IC50? Answer by stating the label of the chosen item.
I

A = Cc1cccc2c(-c3ccc(F)cc3)c(C(=O)O)[nH]c12
B = CN(C)C(=O)c1ccc(-c2c(C(=O)O)[nH]c3c(CCOc4ccccc4)cccc23)cc1
C = Cc1noc(C)c1-c1c(C(=O)O)[nH]c2c(C)cccc12
D = Cc1cccc2c(-c3cncnc3)c(C(=O)O)[nH]c12
E = COc1cccc(-c2c(C(=O)O)[nH]c3c(C)cccc23)c1OC
Please give the order of these compounds when sorted by IC50, largest value leading. Response format: the labels, sorted as the prompt asks.
D, A, C, B, E
(D: 1260 nM, A: 501 nM, C: 200 nM, B: 100 nM, E: 39.8 nM)

1 = Cc1cc(C)c2[nH]c(C(=O)O)c(-c3ccc(F)cc3)c2c1
2 = COc1ccc(-c2c(C(=O)O)[nH]c3c(C)cccc23)cc1
# return whichever of 1 and 2 has the smaller IC50 Answer by stating the label of the chosen item.
2
(2: 251 nM, 1: 501 nM)

1 = Cc1c(Oc2ccccc2)ccc2c(-c3ccc(S(=O)(=O)N(C)C)cc3)c(C(=O)O)[nH]c12
2 = CC(C)c1cccc2c(-c3ccc(Cn4cncn4)cc3)c(C(=O)O)[nH]c12
3 = Cc1cc(F)cc2c(-c3ccc(F)cc3)c(C(=O)O)[nH]c12
Please give the order of these compounds when sorted by IC50, largest value leading. Response format: the labels, sorted as the prompt asks.
3, 1, 2
(3: 794 nM, 1: 158 nM, 2: 10 nM)

a = Cc1cc(C)cc(-c2c(C(=O)O)[nH]c3c(C)cccc23)c1
b = Cc1ccc2c(-c3ccc(F)cc3)c(C(=O)O)[nH]c2c1
Two entries are listed, a and b . Which one carries the higher IC50? Answer by stating the label of the chosen item.
b
(b: 15800 nM, a: 158 nM)

====

Molecular target: VIM-2 (Veronese metallo-β-lactamase-2) (Escherichia coli)
Experiment: Enzyme inhibition assay, VIM-2
Assay type: biochemical
Details: read-out: pIC50 VIM-2 (converted)
Quantity Name: IC50 (nM)

// solved cases for IC50 follow
* Cc1cccc2c(-c3ccccc3Cl)c(C(=O)O)[nH]c12 [Example 39] | 126
* CC(C)c1cccc2c(-c3cc(Cl)cc(Cl)c3)c(C(=O)O)[nH]c12 [Example 76] | 3.98
* Cc1cccc2c(-c3cccnc3)c(C(=O)O)[nH]c12 [Example 24] | 631
* Cc1ccccc1-c1c(C(=O)O)[nH]c2c(C)cccc12 [Example 41] | 251
* Cc1cccc2c(C3CCCC3)c(C(=O)O)[nH]c12 [Example 104] | 12600

a = CC(C)c1cccc2c(-c3ccccc3)c(C(=O)O)[nH]c12 [Example 66]
b = CC(=O)Nc1ccc(-c2c(C(=O)O)[nH]c3c(C)cccc23)cc1 [Example 30]
# return whichever of a and b has the smaller IC50 Answer by stating the label of the chosen item.
a
(a: 31.6 nM, b: 158 nM)

a = Cc1cccc2c(-c3ccc(Cn4cncn4)cc3)c(C(=O)O)[nH]c12 [Example 33]
b = Cc1cccc2c(-c3cccc(S(N)(=O)=O)c3)c(C(=O)O)[nH]c12 [Example 14]
Two entries are listed, a and b . Which one carries the higher IC50? Answer by stating the label of the chosen item.
b
(b: 794 nM, a: 251 nM)
